# Tested on: Escherichia coli TOP10
# protocolNotes: shrunken log2 fold change of peptide-encoding DNA abundance (4.5 h post-induction vs induction); higher = less antimicrobial activity (less host growth inhibition)
# experimentalConditions: time post-induction: 4.5 h; library: site-saturation at positions 5, 18, 19, 20
reportedMetric: shrunken log2 fold change
Quick one: just the number, no unit, thanks!

RRIRMRPPRLPRPRPRPQFHPRP    -0.237
RRIRSRPPRLPRPRPRPVHNPRP    0.0673
RRIRARPPRLPRPRPRPMASPRP    0.543
RRIRWRPPRLPRPRPRPLNFPRP    -0.323
RRIRNRPPRLPRPRPRPEVMPRP    0.0307
RRIRWRPPRLPRPRPRPTFLPRP    0.146
RRIRNRPPRLPRPRPRPEMNPRP    0.0511
RRIRNRPPRLPRPRPRPAYIPRP    -0.786

Give recorded shrunken log2 fold change with Escherichia coli TOP10 for the following sequence: `RRIRQRPPRLPRPRPRPRPIPRP` 0.385

Give recorded shrunken log2 fold change with Escherichia coli TOP10 for the following sequence: `RRIRPRPPRLPRPRPRPHADPRP` -0.161

Give recorded shrunken log2 fold change with Escherichia coli TOP10 for the following sequence: `RRIRERPPRLPRPRPRPRRRPRP` 0.261

Give recorded shrunken log2 fold change with Escherichia coli TOP10 for the following sequence: `RRIRDRPPRLPRPRPRPAHTPRP` 0.0343

Give recorded shrunken log2 fold change with Escherichia coli TOP10 for the following sequence: `RRIRMRPPRLPRPRPRPEGNPRP` 0.182

Give recorded shrunken log2 fold change with Escherichia coli TOP10 for the following sequence: `RRIRGRPPRLPRPRPRPNKEPRP` -0.00663

* * *

# System: Escherichia coli TOP10
# protocolNotes: shrunken log2 fold change of peptide-encoding DNA abundance (4.5 h post-induction vs induction); higher = less antimicrobial activity (less host growth inhibition)
# experimentalConditions: time post-induction: 4.5 h; library: site-saturation at positions 5, 18, 19, 20
Note to self: class labels come from recorded shrunken log2 fold change, ranges listed here: L = under -0.2, M = from -0.2 up to -0.07, H = -0.07 and over

# example entries with known answers
RRIRDRPPRLPRPRPRPHHCPRP    M
RRIRYRPPRLPRPRPRPKPKPRP    H
RRIRWRPPRLPRPRPRPHRIPRP    L
RRIRGRPPRLPRPRPRPVGTPRP    H

Band for the recorded shrunken log2 fold change of `RRIRDRPPRLPRPRPRPFIRPRP` ? L

Band for the recorded shrunken log2 fold change of `RRIRLRPPRLPRPRPRPTGAPRP` ? L

Band for the recorded shrunken log2 fold change of `RRIRNRPPRLPRPRPRPWASPRP` ? H

Band for the recorded shrunken log2 fold change of `RRIRYRPPRLPRPRPRPYYRPRP` ? M

Band for the recorded shrunken log2 fold change of `RRIRHRPPRLPRPRPRPHRIPRP` ? M

Band for the recorded shrunken log2 fold change of `RRIRIRPPRLPRPRPRPMSHPRP` ? M

* * *

# Tested on: Escherichia coli TOP10;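 also: peptides expressed intracellularly from a pBAD plasmid library in pooled LB shake-flask culture, induced with 0.3% L-arabinose, DNA abundance read by NGS, three biological replicates, DESeq2 with apeglm shrinkage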
# protocolNotes: shrunken log2 fold change of peptide-encoding DNA abundance (4.5 h post-induction vs induction); higher = less antimicrobial activity (less host growth inhibition)
# experimentalConditions: time post-induction: 4.5 h; library: site-saturation at positions 5, 18, 19, 20
Reported shrunken log2 fold change values for a set of sequences
Quick one: just the number, no unit, thanks!

RRIRKRPPRLPRPRPRPWDVPRP    0.0155
RRIRDRPPRLPRPRPRPKPQPRP    0.111

Quick one: shrunken log2 fold change of `RRIRPRPPRLPRPRPRPIQPPRP` ? -0.0445

Quick one: shrunken log2 fold change of `RRIRDRPPRLPRPRPRPWCFPRP` ? -0.0692

Quick one: shrunken log2 fold change of `RRIRKRPPRLPRPRPRPVNAPRP` ? 0.025

Quick one: shrunken log2 fold change of `RRIRLRPPRLPRPRPRPAGGPRP` ? 0.169
